molecular target: BRD9 (Homo sapiens, UniProt Q9H8M2); assay: Degradation of BRD9 (IF), immunofluorescence in MV4-11 cells, 24 hours (Assay Protocol 2); type: cell-based; design: A suspension of MV4-11 cells (ATCC CRL-9591) was prepared; host or cells: MV4-11; conditions: Assay protocol 2; BRD9 degradation; read-out: DC50
Sequence (Q9H8M2 whole entry): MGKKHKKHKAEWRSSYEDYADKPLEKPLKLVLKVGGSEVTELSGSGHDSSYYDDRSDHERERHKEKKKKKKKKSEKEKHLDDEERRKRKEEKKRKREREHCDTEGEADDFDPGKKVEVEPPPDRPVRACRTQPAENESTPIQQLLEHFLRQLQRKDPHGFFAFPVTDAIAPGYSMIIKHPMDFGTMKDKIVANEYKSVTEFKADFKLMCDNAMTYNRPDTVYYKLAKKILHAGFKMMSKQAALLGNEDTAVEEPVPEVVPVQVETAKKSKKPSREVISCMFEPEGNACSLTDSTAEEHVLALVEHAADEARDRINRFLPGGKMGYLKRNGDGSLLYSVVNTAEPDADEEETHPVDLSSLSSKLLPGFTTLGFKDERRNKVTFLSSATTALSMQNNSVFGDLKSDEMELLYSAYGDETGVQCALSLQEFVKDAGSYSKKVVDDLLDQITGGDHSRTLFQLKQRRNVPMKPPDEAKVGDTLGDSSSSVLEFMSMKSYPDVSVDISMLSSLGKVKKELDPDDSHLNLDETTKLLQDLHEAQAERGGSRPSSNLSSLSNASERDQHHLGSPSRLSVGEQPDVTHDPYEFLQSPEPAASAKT
Reported Endpoint: DC50

INSERT INTO assay_data (compound, endpoint_value) VALUES
  ('COc1cc(-c2cn(C)c(=O)c(C)c2C)cc(OC)c1CN1CCN(Cc2cccc3c2CCN(C(=O)/C(C#N)=C/C2(C(F)(F)F)CCC2)C3C)C2(CC2)C1 (mixture of isomers)', '1.25 to 10 nM'),
  ('COc1cc(-c2cn(C)c(=O)c(C)c2C)cc(OC)c1CN1CCN(Cc2cccc3c2CCN(C(=O)/C(C#N)=C/C(C)(C)C(F)F)C3C)C2(CC2)C1 (mixture of isomers)', '< 1.25 nM'),
  ('COc1cc(-c2cn(C)c(=O)c(C)c2C)cc(OC)c1CN1CCN(Cc2cccc3c2CCN(C(=O)/C(C#N)=C/C2(C)CCOCC2)C3C(C)C)C2(CC2)C1 (mixture of isomers)', '< 1.25 nM');

---

The entries below are paired with their reported Dmax.
target: BRD9 (Homo sapiens); test: Degradation of BRD9 (IF), immunofluorescence in MV4-11 cells, 24 hours (Assay Protocol 2); assay type: cell-based; parameters: A suspension of MV4-11 cells (ATCC CRL-9591) was prepared; host or cells: MV4-11; conditions: MV4-11, Table 4; BRD9 degradation, determined according to Assay Protocol 2; read-out: Dmax^2
Reported Endpoint: Dmax

INSERT INTO results (compound, endpoint_value) VALUES
  ('COc1cc(-c2cn(C)c(=O)c(C)c2C)cc(OC)c1CN1CCN(C(=O)[C@H]2CN(C(=O)/C(C#N)=C/C(C)(C)C)C[C@@H]2C)CC1', '50 to 70%'),
  ('COc1cc(-c2cn(C)c(=O)c(C)c2C)cc(OC)c1CN1CCCN(C(=O)/C(C#N)=C/C(C)(C)C)CC1', '> 70%'),
  ('COc1cc(-c2cn(C)c(=O)c(C)c2C)cc(OC)c1CN1CC2CC1CN2C(=O)/C(C#N)=C/c1cccc(C(F)(F)F)n1 (mixture of isomers)', '> 70%'),
  ('COc1cc(-c2cn(C)c(=O)c(C)c2C)cc(OC)c1CN1CCN(C(=O)/C(C#N)=C/C(C)(C)C)CC12CC2', '50 to 70%'),
  ('COc1cc(-c2cn(C)c(=O)c(C)c2C)cc(OC)c1CN1CC2CC1CN2C(=O)/C(C#N)=C/C(C)(C)C (mixture of isomers)', '50 to 70%'),
  ('COc1cc(-c2cn(C)c(=O)c(C)c2C)cc(OC)c1CN1CCN(C(=O)[C@@H]2CN(C(=O)/C(C#N)=C/C(C)(C)C)C[C@H]2C(C)C)CC1', '50 to 70%'),
  ('COc1cc(-c2cn(C)c(=O)c(C)c2C)cc(OC)c1CN1CCN(C(=O)/C(C#N)=C/C(C)(C)C)C2(CC2)C1', '30 to 50%'),
  ('COc1cc(-c2cn(C)c(=O)c(C)c2C)cc(OC)c1CN1C2CC1CN(C(=O)/C(C#N)=C/C1(C(F)(F)F)CCC1)C2 (mixture of isomers)', '> 70%'),
  ('COc1cc(-c2cn(C)c(=O)c(C)c2C)cc(OC)c1CN1CCC2(CC1)CCN(C(=O)/C(C#N)=C/c1cccc(Br)n1)CC2', '> 70%'),
  ('COc1cc(-c2cn(C)c(=O)c(C)c2C)cc(OC)c1C(=O)N1CC2CC1CN2C(=O)/C(C#N)=C/C(C)(C)C (mixture of isomers)', '> 70%'),
  ('COc1cc(-c2cn(C)c(=O)c(C)c2C)cc(OC)c1CN1CCN(C(=O)C2CCCN(C(=O)/C(C#N)=C/C(C)(C)C)C2)CC1 (stereo not shown)', '50 to 70%'),
  ('COc1cc(-c2cn(C)c(=O)c(C)c2C)cc(OC)c1CN1CCN(C(=O)[C@@H]2CN(C(=O)/C(C#N)=C/c3nccs3)C[C@H]2c2cccc(C)c2)CC1', '50 to 70%'),
  ('COc1cc(-c2cn(C)c(=O)c(C)c2C)cc(OC)c1CN1CCN(C(=O)[C@@H]2CN(C(=O)/C(C#N)=C/c3nccs3)C[C@H]2C2CCCCC2)CC1', '> 70%'),
  ('COc1cc(-c2cn(C)c(=O)c(C)c2C)cc(OC)c1CN1CCN(C(=O)[C@@H]2CN(C(=O)/C(C#N)=C/C(C)(C)C)C[C@H]2C2CCCCC2)CC1', '50 to 70%'),
  ('COc1cc(-c2cn(C)c(=O)c3ccsc23)cc(OC)c1CN1CCN(C(=O)/C(C#N)=C/C(C)(C)C)CC1', '> 70%'),
  ('COc1cc(-c2cn(C)c(=O)c(C)c2C)cc(OC)c1CN1CCN(C(=O)/C(C#N)=C/C(C)(C)C)CC1', '50 to 70%'),
  ('COc1cccc(/C=C(\C#N)C(=O)N2CC3CC2CN3Cc2c(OC)cc(-c3cn(C)c(=O)c(C)c3C)cc2OC)n1 (mixture of isomers)', '50 to 70%'),
  ('COc1cc(-c2cn(C)c(=O)c(C)c2C)cc(OC)c1CN1CC2CC1CN2C(=O)/C(C#N)=C/c1cccc(Br)n1 (mixture of isomers)', '> 70%'),
  ('COc1cc(-c2cn(C)c(=O)c(C)c2C)cc(OC)c1CN(C)C(=O)/C(C#N)=C/c1cccc(Br)n1', '50 to 70%'),
  ('COc1cc(-c2cn(C)c(=O)c(C)c2C)cc(OC)c1CN(C)C(=O)/C(C#N)=C/C(C)(C)C', '50 to 70%'),
  ('COc1cc(-c2cn(C)c(=O)c(C)c2C)cc(OC)c1CN1CCN(C(=O)[C@@H]2CN(C(=O)/C(C#N)=C/c3ccc(F)cc3)C[C@H]2C2CCCCC2)CC1', '50 to 70%'),
  ('COc1cc(-c2cn(C)c(=O)c(C)c2C)cc(OC)c1CN(C)C1CCN(C(=O)/C(C#N)=C/c2cccc(Br)n2)CC1', '> 70%'),
  ('COc1cc(-c2cn(C)c(=O)c(C)c2C)cc(OC)c1CN1CCN(C(=O)C2CCCN(C(=O)/C(C#N)=C/c3nccs3)C2)CC1 (stereo not shown)', '50 to 70%'),
  ('COc1cc(-c2cn(C)c(=O)c(C)c2C)cc(OC)c1CN1C2CC1CN(C(=O)/C(C#N)=C/c1cc(C)on1)C2 (mixture of isomers)', '30 to 50%'),
  ('COc1cc(-c2cn(C)c(=O)c(C)c2C)cc(OC)c1CN1CCN(C(=O)C2CC(C(C)C)CN(C(=O)/C(C#N)=C/C(C)(C)C)C2)CC1 (stereo not shown)', '> 70%');
